Cited source for all entries: paper PMC12748989

In what follows, each item is paired with its Average (percentage cell inhibition), Dmastoparan MDA-MB231 12.5uM for MDA-MB-231 cells.
Measured attribute: Average (percentage cell inhibition), Dmastoparan MDA-MB231 12.5uM (%)

molecule="CC[C@H](C)[C@H](N)C(=O)N[C@@H](CC(C)C)C(=O)N[C@@H](CC(C)C)C(=O)N[C@@H](CCCCN)C(=O)N[C@@H](C)C(=O)N[C@@H](CC(C)C)C(=O)N[C@@H](C)C(=O)N[C@@H](C)C(=O)N[C@@H](CC(C)C)C(=O)N[C@@H](C)C(=O)N[C@@H](CCCCN)C(=O)N[C@@H](CCCCN)C(=O)N[C@H](C(=O)N[C@@H](CC(C)C)C(N)=O)[C@@H](C)CC [L2]" tested_target="MDA-MB-231 cells" readout_value=95.7612
molecule="CC[C@H](C)[C@H](N)C(=O)N[C@@H](CC(N)=O)C(=O)N[C@@H](CC(C)C)C(=O)N[C@@H](CCCCN)C(=O)N[C@@H](C)C(=O)N[C@H](C(=O)N[C@@H](C)C(=O)N[C@@H](C)C(=O)N[C@@H](CC(C)C)C(=O)N[C@@H](C)C(=O)N[C@@H](CCCCN)C(=O)N[C@@H](CCCCN)C(=O)N[C@H](C(=O)N[C@@H](CC(C)C)C(N)=O)[C@@H](C)CC)[C@@H](C)O [T6]" tested_target="MDA-MB-231 cells" readout_value=9.306
molecule="CC[C@H](C)[C@H](N)C(=O)N[C@@H](CC(N)=O)C(=O)N[C@@H](CC(C)C)C(=O)N[C@@H](CCCCN)C(=O)N[C@@H](C)C(=O)N[C@@H](CC(C)C)C(=O)N[C@H](C(=O)N[C@@H](C)C(=O)N[C@@H](CC(C)C)C(=O)N[C@@H](C)C(=O)N[C@@H](CCCCN)C(=O)N[C@@H](CCCCN)C(=O)N[C@H](C(=O)N[C@@H](CC(C)C)C(N)=O)[C@@H](C)CC)C(C)C [V7]" tested_target="MDA-MB-231 cells" readout_value=57.1739

---

Listed molecules paired with reported Average (percentage cell inhibition), Mastoparan PBMC
system: PBMC; conditions: 12.5 µM
Measured attribute: Average (percentage cell inhibition), Mastoparan PBMC (%)

structure_smiles_string=CC[C@H](C)[C@H](N)C(=O)N[C@@H](CC(N)=O)C(=O)N[C@@H](CC(C)C)C(=O)N[C@@H](CCCCN)C(=O)N[C@@H](C)C(=O)N[C@@H](CC(C)C)C(=O)N[C@@H](C)C(=O)N[C@@H](Cc1c[nH]cn1)C(=O)N[C@@H](CC(C)C)C(=O)N[C@@H](C)C(=O)N[C@@H](CCCCN)C(=O)N[C@@H](CCCCN)C(=O)N[C@H](C(=O)N[C@@H](CC(C)C)C(N)=O)[C@@H](C)CC result_unit=% readout_value=-4.293
structure_smiles_string=CC[C@H](C)[C@H](N)C(=O)N[C@@H](CC(N)=O)C(=O)N[C@@H](CC(C)C)C(=O)N[C@@H](CCCCN)C(=O)N[C@H](C(=O)N[C@@H](CC(C)C)C(=O)N[C@@H](C)C(=O)N[C@@H](C)C(=O)N[C@@H](CC(C)C)C(=O)N[C@@H](C)C(=O)N[C@@H](CCCCN)C(=O)N[C@@H](CCCCN)C(=O)N[C@H](C(=O)N[C@@H](CC(C)C)C(N)=O)[C@@H](C)CC)[C@@H](C)CC result_unit=% readout_value=29.3206
structure_smiles_string=CC[C@H](C)[C@H](N)C(=O)N[C@@H](CC(N)=O)C(=O)N[C@@H](CC(C)C)C(=O)N[C@@H](CCCCN)C(=O)N[C@@H](C)C(=O)N[C@@H](CC(C)C)C(=O)N[C@@H](C)C(=O)N[C@@H](C)C(=O)N[C@@H](CC(C)C)C(=O)N[C@@H](C)C(=O)N[C@@H](CCC(=O)O)C(=O)N[C@@H](CCCCN)C(=O)N[C@H](C(=O)N[C@@H](CC(C)C)C(N)=O)[C@@H](C)CC result_unit=% readout_value=5.959
structure_smiles_string=CC[C@H](C)[C@H](N)C(=O)N[C@@H](CC(N)=O)C(=O)N[C@@H](CC(C)C)C(=O)N[C@@H](CCCCN)C(=O)N[C@@H](C)C(=O)N[C@@H](CC(C)C)C(=O)N[C@@H](C)C(=O)N[C@@H](C)C(=O)N[C@@H](C)C(=O)N[C@@H](C)C(=O)N[C@@H](CCCCN)C(=O)N[C@@H](CCCCN)C(=O)N[C@H](C(=O)N[C@@H](CC(C)C)C(N)=O)[C@@H](C)CC result_unit=% readout_value=-3.746
structure_smiles_string=CC[C@H](C)[C@H](N)C(=O)N[C@@H](CC(N)=O)C(=O)N[C@@H](CC(C)C)C(=O)N[C@@H](CCCCN)C(=O)N[C@@H](C)C(=O)N[C@@H](CC(C)C)C(=O)N[C@@H](C)C(=O)N[C@@H](C)C(=O)N[C@@H](CC(C)C)C(=O)N[C@@H](C)C(=O)N[C@@H](CCCCN)C(=O)N[C@@H](CCCNC(=N)N)C(=O)N[C@H](C(=O)N[C@@H](CC(C)C)C(N)=O)[C@@H](C)CC result_unit=% readout_value=-4.156
structure_smiles_string=CC[C@H](C)[C@H](N)C(=O)N[C@@H](CC(N)=O)C(=O)N[C@@H](CC(C)C)C(=O)N[C@@H](CCCCN)C(=O)N[C@@H](C)C(=O)N[C@@H](CC(C)C)C(=O)N[C@@H](C)C(=O)N[C@@H](C)C(=O)N[C@@H](CC(C)C)C(=O)N[C@@H](C)C(=O)N[C@@H](CCCCN)C(=O)N[C@@H](CCCCN)C(=O)N[C@@H](CCC(=O)O)C(=O)N[C@@H](CC(C)C)C(N)=O result_unit=% readout_value=-2.907
structure_smiles_string=CC[C@H](C)[C@H](N)C(=O)N[C@@H](Cc1ccc(O)cc1)C(=O)N[C@@H](CC(C)C)C(=O)N[C@@H](CCCCN)C(=O)N[C@@H](C)C(=O)N[C@@H](CC(C)C)C(=O)N[C@@H](C)C(=O)N[C@@H](C)C(=O)N[C@@H](CC(C)C)C(=O)N[C@@H](C)C(=O)N[C@@H](CCCCN)C(=O)N[C@@H](CCCCN)C(=O)N[C@H](C(=O)N[C@@H](CC(C)C)C(N)=O)[C@@H](C)CC result_unit=% readout_value=57.84
structure_smiles_string=CC[C@H](C)[C@H](N)C(=O)N[C@@H](CC(N)=O)C(=O)N[C@@H](CC(C)C)C(=O)N[C@@H](CCCCN)C(=O)N[C@@H](C)C(=O)N[C@@H](CC(C)C)C(=O)N[C@@H](C)C(=O)N[C@@H](C)C(=O)N[C@@H](CC(C)C)C(=O)N[C@@H](C)C(=O)N[C@@H](CCC(N)=O)C(=O)N[C@@H](CCCCN)C(=O)N[C@H](C(=O)N[C@@H](CC(C)C)C(N)=O)[C@@H](C)CC result_unit=% readout_value=14.9552
structure_smiles_string=CC[C@H](C)[C@H](N)C(=O)N[C@@H](CC(N)=O)C(=O)N[C@@H](CC(C)C)C(=O)N[C@@H](CCCCN)C(=O)N[C@@H](C)C(=O)N[C@@H](CC(C)C)C(=O)N[C@@H](C)C(=O)N[C@@H](C)C(=O)N[C@@H](CCCNC(=N)N)C(=O)N[C@@H](C)C(=O)N[C@@H](CCCCN)C(=O)N[C@@H](CCCCN)C(=O)N[C@H](C(=O)N[C@@H](CC(C)C)C(N)=O)[C@@H](C)CC result_unit=% readout_value=5.887
structure_smiles_string=CC[C@H](C)[C@H](N)C(=O)N[C@@H](CC(N)=O)C(=O)N[C@@H](CC(C)C)C(=O)N[C@@H](CCCCN)C(=O)N[C@@H](C)C(=O)N[C@@H](CC(C)C)C(=O)N[C@@H](C)C(=O)N[C@@H](Cc1c[nH]c2ccccc12)C(=O)N[C@@H](CC(C)C)C(=O)N[C@@H](C)C(=O)N[C@@H](CCCCN)C(=O)N[C@@H](CCCCN)C(=O)N[C@H](C(=O)N[C@@H](CC(C)C)C(N)=O)[C@@H](C)CC result_unit=% readout_value=51.7838
